Measured values drawn from ChEMBL document CHEMBL3784918 for this set.

biological target: EML4-ALK (Homo sapiens) (UniProt Q9UM73+Q9HC35); test: Inhibition of EML4-ALK in human NCI-H3122 cells assessed as inhibition of cell proliferation after 72 hrs by SRB assay; format: cell-based
Sequence (Q9HC35 whole entry partner): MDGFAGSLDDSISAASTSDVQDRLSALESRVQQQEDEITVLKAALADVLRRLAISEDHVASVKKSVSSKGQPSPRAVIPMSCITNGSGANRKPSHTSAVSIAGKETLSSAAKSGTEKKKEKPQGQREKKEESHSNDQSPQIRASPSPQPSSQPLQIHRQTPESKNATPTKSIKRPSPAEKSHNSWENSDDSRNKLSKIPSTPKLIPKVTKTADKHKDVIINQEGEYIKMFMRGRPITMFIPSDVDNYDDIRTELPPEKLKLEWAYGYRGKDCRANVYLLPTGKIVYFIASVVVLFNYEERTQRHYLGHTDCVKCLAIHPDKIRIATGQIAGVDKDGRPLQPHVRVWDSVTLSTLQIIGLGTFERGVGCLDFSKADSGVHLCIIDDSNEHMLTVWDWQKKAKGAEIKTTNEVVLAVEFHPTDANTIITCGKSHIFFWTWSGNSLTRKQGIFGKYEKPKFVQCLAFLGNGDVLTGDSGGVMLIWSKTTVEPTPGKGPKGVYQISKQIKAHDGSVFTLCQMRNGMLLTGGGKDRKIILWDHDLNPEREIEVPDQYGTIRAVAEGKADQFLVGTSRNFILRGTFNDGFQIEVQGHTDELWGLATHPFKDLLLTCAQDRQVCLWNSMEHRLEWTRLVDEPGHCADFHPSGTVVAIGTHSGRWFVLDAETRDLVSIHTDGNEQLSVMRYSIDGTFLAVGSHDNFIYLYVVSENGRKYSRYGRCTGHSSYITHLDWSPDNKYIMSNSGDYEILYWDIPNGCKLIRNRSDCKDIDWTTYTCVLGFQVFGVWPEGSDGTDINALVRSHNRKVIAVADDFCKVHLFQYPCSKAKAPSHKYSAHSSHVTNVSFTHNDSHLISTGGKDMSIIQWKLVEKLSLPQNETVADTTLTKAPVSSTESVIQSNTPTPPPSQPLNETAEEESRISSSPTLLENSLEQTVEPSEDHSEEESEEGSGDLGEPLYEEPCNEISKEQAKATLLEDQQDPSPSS
Sequence (Q9UM73 19-1620 limits assumed): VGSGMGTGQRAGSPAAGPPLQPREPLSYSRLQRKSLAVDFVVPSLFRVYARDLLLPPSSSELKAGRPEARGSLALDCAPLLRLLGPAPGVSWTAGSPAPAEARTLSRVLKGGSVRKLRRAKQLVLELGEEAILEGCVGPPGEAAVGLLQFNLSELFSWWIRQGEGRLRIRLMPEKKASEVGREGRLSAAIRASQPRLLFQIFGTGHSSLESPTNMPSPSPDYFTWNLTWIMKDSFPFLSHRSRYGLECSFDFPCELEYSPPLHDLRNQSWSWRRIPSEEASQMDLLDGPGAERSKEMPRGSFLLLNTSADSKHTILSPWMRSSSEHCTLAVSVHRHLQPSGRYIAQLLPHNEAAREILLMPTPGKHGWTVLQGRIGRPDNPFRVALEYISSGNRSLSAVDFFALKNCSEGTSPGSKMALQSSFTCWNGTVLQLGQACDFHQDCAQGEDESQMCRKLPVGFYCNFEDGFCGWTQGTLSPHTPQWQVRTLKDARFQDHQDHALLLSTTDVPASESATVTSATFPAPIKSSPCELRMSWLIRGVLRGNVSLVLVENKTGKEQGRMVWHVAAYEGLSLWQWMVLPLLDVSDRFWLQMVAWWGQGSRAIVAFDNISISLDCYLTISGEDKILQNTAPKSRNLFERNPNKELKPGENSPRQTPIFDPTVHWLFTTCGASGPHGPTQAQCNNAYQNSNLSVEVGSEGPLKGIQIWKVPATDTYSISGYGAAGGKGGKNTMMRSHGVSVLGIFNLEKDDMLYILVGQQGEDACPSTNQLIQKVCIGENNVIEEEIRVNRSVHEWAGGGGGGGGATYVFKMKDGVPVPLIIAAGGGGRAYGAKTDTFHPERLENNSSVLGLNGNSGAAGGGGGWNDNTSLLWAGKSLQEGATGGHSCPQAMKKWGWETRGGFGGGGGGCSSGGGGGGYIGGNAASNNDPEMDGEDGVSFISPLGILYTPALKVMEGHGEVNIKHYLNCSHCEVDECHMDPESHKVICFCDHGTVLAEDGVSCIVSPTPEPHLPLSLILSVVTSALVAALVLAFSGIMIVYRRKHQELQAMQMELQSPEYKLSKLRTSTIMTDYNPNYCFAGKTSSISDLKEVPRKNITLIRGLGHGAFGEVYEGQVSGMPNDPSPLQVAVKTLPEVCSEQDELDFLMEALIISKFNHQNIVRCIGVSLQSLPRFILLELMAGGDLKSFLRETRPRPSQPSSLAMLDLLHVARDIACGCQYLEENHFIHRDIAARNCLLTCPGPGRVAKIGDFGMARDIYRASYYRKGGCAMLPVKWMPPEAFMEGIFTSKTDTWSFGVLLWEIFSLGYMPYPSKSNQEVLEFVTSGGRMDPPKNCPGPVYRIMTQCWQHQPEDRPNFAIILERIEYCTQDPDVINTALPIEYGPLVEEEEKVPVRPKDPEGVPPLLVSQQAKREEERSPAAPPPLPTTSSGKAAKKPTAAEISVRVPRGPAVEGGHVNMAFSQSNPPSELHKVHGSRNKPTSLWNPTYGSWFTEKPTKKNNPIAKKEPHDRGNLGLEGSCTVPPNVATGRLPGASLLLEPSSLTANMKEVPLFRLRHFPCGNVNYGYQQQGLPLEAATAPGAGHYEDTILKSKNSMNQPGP
Listing: CC50 of selected compounds

{"COMPOUND": "COc1cc2c(cc1Nc1ncc(Cl)c(Nc3ccccc3S(=O)(=O)C(C)C)n1)CC/C(=N\\O)C2(C)C", "RESULT_UNITS": "nM", "CC50": 276}
{"COMPOUND": "COc1cc2c(cc1Nc1ncc(Cl)c(Nc3ccccc3S(=O)(=O)C(C)C)n1)CCC(N)C2(C)C (stereo not drawn)", "RESULT_UNITS": "nM", "CC50": 16}
{"COMPOUND": "COc1cc2c(cc1Nc1ncc(Cl)c(Nc3ccccc3S(=O)(=O)C(C)C)n1)C(C)(C)/C(=N/O)CC2", "RESULT_UNITS": "nM", "CC50": 1220}
